Test system: UACC-257
experimentSummary: NCI tumour cell line growth inhibition, 48 h
Calls of active or inactive are those of the source. Rule as the data show it: active = GI50 up to about 1.1 µM and inactive = higher. Non-standard residues stand in square brackets, D forms with d. Residues, ends and D or L forms follow the SMILES beside them. *: point of attachment. NMeF = CN[CH](Cc1ccccc1)C(=O)O; NMeV = CN[CH](C(=O)O)C(C)C; Boc = CC(C)(C)OC(=O)*
Parameter call: string, one of 1 (yes) for active, 0 (no) for inactive

compound	cat
CC(=O)OCC1OC(OC2CC3C(C)(C)C(O)CC[C@]3(C)C3CCC45CC4(CCC5[C@@H](C)CC(O)C(O)C(C)(C)O)[C@]23C)C(O)C(O)C1O (stereo partly drawn)	0 (no)
CC(C)C(NC(=O)OC(C)(C)C)C(=O)N(C)C(Cc1ccccc1)C(=O)N(C)C(C(=O)O)C(C)C (stereo not drawn) (Boc-Val-[NMeF]-[NMeV]-OH; configuration not given here)	0 (no)
COc1cc(C(=O)C(CO)Oc2ccccc2OC)ccc1O (stereo not drawn)	0 (no)

Please share the test call associated with "Cc1cnc2sn(-c3ccc(Oc4ccccc4)cc3)c(=O)c2c1" . 0 (no)

Please share the test call associated with "COc1ccc(Nc2nnc(CCCCCCCCc3nnc(Nc4ccc(OC)cc4)o3)o2)cc1" . 0 (no)

Please share the test call associated with Nc1ccc(C(=O)NN2C(=O)C(Cl)C2c2cccc([N+](=O)[O-])c2)cc1 (stereo not drawn) . 0 (no)

Please share the test call associated with Cc1c(C)c(C)n(C2OC(CO)C(O)C(O)C2O)c(=S)c1C#N (stereo not drawn) . 0 (no)

----------
Test system: OVCAR-8
experimentSummary: NCI tumour cell line growth inhibition, 48 h
The source made the active and inactive calls. Cut-off read from the data, not from the text of the source: active = GI50 up to about 1.1 µM and inactive = higher. Non-standard residues stand in square brackets, D forms with d. Residues, ends and D or L forms follow the SMILES beside them. *: point of attachment. NMeF = CN[CH](Cc1ccccc1)C(=O)O; NMeV = CN[CH](C(=O)O)C(C)C; Boc = CC(C)(C)OC(=O)*
GI50 reference

Fill in: GI50 of CC(N)/C(N)=N/O (stereo not given) is ___ > 100 µM (inactive)

Fill in: GI50 of COC1(O)C(=O)c2ccccc2OC1(OC)c1ccccc1 (stereo not given) is ___ > 100 µM (inactive)

Fill in: GI50 of Cc1c2cc[n+](C)cc2c(COC2OC(CO)C(O)C2O)c2c3ccccc3n(C)c12 (stereo not given) is ___ 99.1 µM (inactive)

Fill in: GI50 of CC(C)C(NC(=O)OC(C)(C)C)C(=O)N(C)C(Cc1ccccc1)C(=O)N(C)C(C(=O)O)C(C)C (stereo not drawn) (Boc-Val-[NMeF]-[NMeV]-OH; configuration not given here) is ___ > 100 µM (inactive)

Fill in: GI50 of CC1=NNC(=O)C1C1CC(c2c[nH]c3ccccc23)=NN(c2ccccc2)C1=O (stereo not given) is ___ > 100 µM (inactive)

Fill in: GI50 of "COc1cc(COC(=O)N[C@H](C(=O)O)C(C)(C)C)c([N+](=O)[O-])cc1OC" is ___ > 100 µM (inactive)

Fill in: GI50 of CC(=O)C1(O)CC2(c3ccccc3)C(=O)C1(c1ccccc1)C(c1ccccc1)=C2c1ccccc1 (stereo not given) is ___ > 100 µM (inactive)

Fill in: GI50 of "Cc1ccc(-[n+]2cc([O-])on2)cc1" is ___ > 100 µM (inactive)

Fill in: GI50 of COc1c(C(C)C)cc2c3c1OC(=O)[C@@]31CCCC(C)(C)C1CC2 (stereo not given in full) is ___ 17.7 µM (inactive)

Fill in: GI50 of CCOC(=O)C1C(O)CC2c3ccccc3-c3ccccc3C21 (stereo not given) is ___ 21.5 µM (inactive)

Fill in: GI50 of "CC1=C(C(=O)Nc2ccc([N+](=O)[O-])cc2)C(c2ccc(N(C)C)cc2)C(C(=O)Nc2ccc([N+](=O)[O-])cc2)=C(C)N1" is ___ 26.6 µM (inactive)

Fill in: GI50 of "Cc1cccc(-c2cc(O)c3c(C)ccnc3n2)c1" is ___ 0.718 µM (active)

Fill in: GI50 of "O=C(/C=C/c1ccccc1)/C=C/c1ccccc1O" is ___ 17 µM (inactive)

Fill in: GI50 of "COc1ccc(OC)c(/C(C)=N/NC(N)=S)c1" is ___ > 100 µM (inactive)
